- Test system: LPS induced neuroinflammation
- assay_procedure: LPS induced neuroinflammation: real time PCR of brain tissue
- Assay type: in vivo, mouse
- conditions_used: 25 mg/kg i.v. alternate days, day 7
Let's look at some substances and their measured relative expression of BCl2 in brain tissues.
readout_type: relative expression of BCl2 in brain tissues

INSERT INTO measurements (substance, tested_target, reported_result) VALUES
  ('Ac-EPAPYQPEG-NH2 [CP-1]', 'LPS induced neuroinflammation', '0.36+/−0.8'),
  ('Ac-EPAPESPQV-NH2 [GA-2]', 'LPS induced neuroinflammation', '1.9+/−0.9'),
  ('Ac-EPAPLAPYG-NH2 [GA-1]', 'LPS induced neuroinflammation', '1.25+/−0.5'),
  ('Ac-APKPYQPRG-NH2 [CP-3]', 'LPS induced neuroinflammation', '0.44+/−0.9'),
  ('Ac-EPAPEQPDG-NH2 [CP-2]', 'LPS induced neuroinflammation', '0.45+/−0.9');
